Each recorded value in this set is attributed to paper PMC9145144.

Target: acetylcholinesterase from Electrophorus electricus (Electrophorus electricus, UniProt O42275)
Sequence (O42275 24-633): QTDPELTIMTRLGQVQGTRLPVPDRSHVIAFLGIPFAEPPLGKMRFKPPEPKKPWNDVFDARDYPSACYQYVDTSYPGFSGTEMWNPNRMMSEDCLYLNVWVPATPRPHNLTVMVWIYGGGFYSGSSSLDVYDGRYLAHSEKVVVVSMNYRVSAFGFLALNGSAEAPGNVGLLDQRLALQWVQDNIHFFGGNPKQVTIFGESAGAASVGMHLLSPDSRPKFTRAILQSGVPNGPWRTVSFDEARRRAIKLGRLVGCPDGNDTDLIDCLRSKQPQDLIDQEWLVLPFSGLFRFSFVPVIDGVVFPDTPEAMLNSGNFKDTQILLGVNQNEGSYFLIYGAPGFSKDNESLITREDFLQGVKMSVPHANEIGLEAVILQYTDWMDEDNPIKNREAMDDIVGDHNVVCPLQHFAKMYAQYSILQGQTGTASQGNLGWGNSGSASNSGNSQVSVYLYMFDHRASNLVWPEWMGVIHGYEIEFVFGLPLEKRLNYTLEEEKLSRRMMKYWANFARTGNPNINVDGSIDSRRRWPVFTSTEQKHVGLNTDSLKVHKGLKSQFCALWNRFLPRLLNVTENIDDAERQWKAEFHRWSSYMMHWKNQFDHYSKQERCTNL
Experiment: biochemical
Format: biochemical
Settings: IC50, Ellman's method, triplicate, means ± SD; na = not active
VALUE_TYPE: pIC50
# log scale: pIC50 equals minus log10 of the concentration in mol/L

Asked: Sample O=C(/C=C/c1ccccc1)N1C[C@@H]2C[C@H](C1)c1cccc(=O)n1C2 — what was its pIC50?
Given back: 3.41

---

Molecular target: UniProtKB O42275
Assay: biochemical
Type: biochemical
Conditions: Ellman's method, triplicate, means ± SD; na = not active; read-out: IC50
VALUE_TYPE: IC50 (µM)
Give just the numeric value; µM need not be written.

Asked: Checklist item: IC50 tested on UniProtKB O42275, entry CC1CCc2c([nH]c3ccccc23)C2(N1)C(=O)Nc1ccccc12 (centres unmarked) [Compound 28] , value?
Given back: 620
